experiment: Clearance in Sprague-Dawley rat at 1 mg/kg, iv; type: ADME, organism-based; conditions: in vivo
Below: a set of entries, each annotated with reported clearance.
The reply must contain the numeric value and, after it, the unit.

Sample records with clearance:
molecule: COc1cc(N2C(=O)N(Cc3c(F)cc(F)cc3Cl)c3ccccc3S2(=O)=O)cnc1OC
clearance: 34 mL/min/kg
--
molecule: COc1cc(N2C(=O)N(Cc3c(F)cc(F)cc3F)c3ccccc3S2(=O)=O)cc(OC)n1
clearance: 17 mL/min/kg
--
molecule: COc1cc(N2C(=O)N(Cc3c(F)cc(F)cc3F)c3ccccc3S2(=O)=O)cnc1OC
clearance: 18 mL/min/kg
--
molecule: COc1ccc(N2C(=O)N(Cc3c(F)cc(F)cc3F)c3ncccc3S2(=O)=O)nc1OC
clearance: 29 mL/min/kg

Q: // clearance lookup, key: `COc1cc(N2C(=O)N(Cc3c(F)cc(F)cc3F)c3ncccc3S2(=O)=O)cnc1OC`
Result: 18 mL/min/kg

###

experiment: Clearance in beagle dog at 2 mg/kg, iv; format: ADME, organism-based, Canis lupus familiaris; settings: in vivo
experimentalReadout: clearance (L/h/kg)
Express the result in L/h/kg but write the number alone.

Q: // clearance lookup, key: `COc1cc(N2C(=O)N(Cc3c(F)cc(F)cc3F)c3ccccc3S2(=O)=O)cnc1OC`
Result: 0.3

###

experiment: Oral bioavailability in beagle dog at 1 mg/kg; format: ADME, organism-based, Canis lupus familiaris; conditions: in vivo
experimentalReadout: bioavailability (%)
Express the result in % but write the number alone.

Q: // bioavailability lookup, key: `COc1cc(N2C(=O)N(Cc3c(F)cc(F)cc3F)c3ncccc3S2(=O)=O)cnc1OC`
Result: 70

###

test: Oral bioavailability in beagle dog at 2 mg/kg; format: ADME, organism-based, Canis lupus familiaris; conditions: in vivo
experimentalReadout: bioavailability (%)
Express the result in % but write the number alone.

Q: // bioavailability lookup, key: `COc1cc(N2C(=O)N(Cc3c(F)cc(F)cc3F)c3ccccc3S2(=O)=O)cnc1OC`
Result: 100

###

test: Half life in rat liver microsomes; format: ADME
The label depends only on half-life: true (1) if it is at least 20 min, false (0) if it is smaller.

Field: example entries. Status: answers known.
molecule: COc1cc(N2C(=O)N(Cc3c(F)cc(F)cc3F)c3ccccc3S2(=O)=O)cc(OC)n1
labelClass: false (0)

molecule: COc1cc(F)c(CN2C(=O)N(c3ccc(OC)c(OC)n3)S(=O)(=O)c3ccccc32)c(F)c1
labelClass: false (0)

molecule: COc1cc(F)c(CN2C(=O)N(c3cc(OC)nc(OC)c3)S(=O)(=O)c3ccccc32)c(F)c1
labelClass: false (0)

molecule: COc1cc(F)c(CN2C(=O)N(c3cnc(OC)c(OC)c3)S(=O)(=O)c3ccccc32)c(F)c1
labelClass: false (0)

molecule: COc1cc(N2C(=O)N(Cc3c(F)cc(F)cc3F)c3ncccc3S2(=O)=O)cnc1OC
labelClass: true (1)

molecule: CNc1cc(N2C(=O)N(Cc3c(F)cc(OC)cc3F)c3ncccc3S2(=O)=O)cnc1OC
labelClass: false (0)

Q: Does the compound `COc1cc(N2C(=O)N(Cc3c(F)cc(F)cc3Cl)c3ccccc3S2(=O)=O)cnc1OC` have recorded half-life that is 20 min or more?
Result: true (1)

Q: Further, for `COc1ccc(N2C(=O)N(Cc3c(F)cc(F)cc3F)c3ncccc3S2(=O)=O)nc1OC` ?
Result: false (0)

Q: Further, for `COc1cc(N2C(=O)N(Cc3c(F)cc(F)cc3F)c3ccccc3S2(=O)=O)ccn1` ?
Result: true (1)

Q: Further, for `COc1cc(N2C(=O)N(Cc3c(F)cc(F)cc3F)c3ccccc3S2(=O)=O)cnc1OC` ?
Result: true (1)

Reference source: ChEMBL document CHEMBL3739366
